# target-or-test-system: cynomolgus CD19 (cynomolgus)
# protocol-summary: Octet HTX (ForteBio), IgG on AHC sensor, 1:1 fit
parameter: koff (s⁻¹)
I only need the number, in s⁻¹, no unit after it.

Solved entries (count: 2):
CNG-CD19-705 (antibody, V domains shown) VH: QVQLQESGPGLVKPSQTLSLTCTVSGGSISTSGMGVGWIRQHPGKGLEWIGHIWWDDDKRYNPALKSRVTISVDTSKNQFSLKLSSVTAADTAVYYCARMELWSYYFDYWGQGTLVTVSS VL: EIVLTQSPATLSLSPGERATLSCSASSSVGYMHWYQQKPGQAPRLLIYDTSSLASGIPARFSGSGSGTDFTLTISSLEPEDFAVYYCFQGSVYPFTFGQGTKLEIK | 0.000837
CNG-CD19-701 (antibody, V domains shown) VH: QVQLQESGPGLVKPSQTLSLTCTVSGGSISTSTMGVGWIRQHPGKGLEWIGFIWWDDDKRYNPNLKSRVTMSVDTSKNQFSLKLSSVTAADTAVYYCARMELWSYYFDYWGQGTLVTVSS VL: EIVLTQSPATLSLSPGERATLSCSASSSVGYMHWYQQKPGQAPRLLIYDTSKLASGIPARFSGSGSGTDFTLTISSLEPEDFAVYYCFQGSVYPFTFGQGTKLEIK | 0.000168

// koff lookup, binder = CNG-CD19-708 (antibody, V domains shown) VH: QVQLQESGPGLVKPSQTLSLTCTVSGGSISTSTMGVGWIRQHPGKGLEWIGFIWWDDDKRYNPNLKSRVTMSVDTSKNQFSLKLSSVTAADTAVYYCARMELWSYYFDPWGQGTLVTVSS VL: EIVLTQSPATLSLSPGERATLSCSASSSVGYMHWYQQKPGQAPRLLIYDTSKLSSGIPARFSGSGSGTDFTLTISSLEPEDFAVYYCFQGSVYPFTFGQGTKLEIK , result: 0.000223

The reported value for CNG-CD19-710 (antibody, V domains shown) VH: QVQLQESGPGLVKPSQTLSLTCTVSGVSISTSSMGVGWIRQHPGKGLEWIGHAWWDDDKRYNPALKSRVTISVDTSKNQFSLKLSSVTAADTAVYYCARMELWSYYFDPWGQGTLVTVSS VL: EIVLTQSPATLSLSPGERATLSCSASSSFSYMHWYQQKPGQAPRLLIYDTSKLASGIPARFSGSGSGTDFTLTISSLEPEDFAVYYCFQGSVYPFTFGQGTKLEIK in terms of koff is 0.000328
